tested_target: ATP-dependent translocase ABCB1 (Homo sapiens, UniProt P08183)
Sequence (P08183 whole entry): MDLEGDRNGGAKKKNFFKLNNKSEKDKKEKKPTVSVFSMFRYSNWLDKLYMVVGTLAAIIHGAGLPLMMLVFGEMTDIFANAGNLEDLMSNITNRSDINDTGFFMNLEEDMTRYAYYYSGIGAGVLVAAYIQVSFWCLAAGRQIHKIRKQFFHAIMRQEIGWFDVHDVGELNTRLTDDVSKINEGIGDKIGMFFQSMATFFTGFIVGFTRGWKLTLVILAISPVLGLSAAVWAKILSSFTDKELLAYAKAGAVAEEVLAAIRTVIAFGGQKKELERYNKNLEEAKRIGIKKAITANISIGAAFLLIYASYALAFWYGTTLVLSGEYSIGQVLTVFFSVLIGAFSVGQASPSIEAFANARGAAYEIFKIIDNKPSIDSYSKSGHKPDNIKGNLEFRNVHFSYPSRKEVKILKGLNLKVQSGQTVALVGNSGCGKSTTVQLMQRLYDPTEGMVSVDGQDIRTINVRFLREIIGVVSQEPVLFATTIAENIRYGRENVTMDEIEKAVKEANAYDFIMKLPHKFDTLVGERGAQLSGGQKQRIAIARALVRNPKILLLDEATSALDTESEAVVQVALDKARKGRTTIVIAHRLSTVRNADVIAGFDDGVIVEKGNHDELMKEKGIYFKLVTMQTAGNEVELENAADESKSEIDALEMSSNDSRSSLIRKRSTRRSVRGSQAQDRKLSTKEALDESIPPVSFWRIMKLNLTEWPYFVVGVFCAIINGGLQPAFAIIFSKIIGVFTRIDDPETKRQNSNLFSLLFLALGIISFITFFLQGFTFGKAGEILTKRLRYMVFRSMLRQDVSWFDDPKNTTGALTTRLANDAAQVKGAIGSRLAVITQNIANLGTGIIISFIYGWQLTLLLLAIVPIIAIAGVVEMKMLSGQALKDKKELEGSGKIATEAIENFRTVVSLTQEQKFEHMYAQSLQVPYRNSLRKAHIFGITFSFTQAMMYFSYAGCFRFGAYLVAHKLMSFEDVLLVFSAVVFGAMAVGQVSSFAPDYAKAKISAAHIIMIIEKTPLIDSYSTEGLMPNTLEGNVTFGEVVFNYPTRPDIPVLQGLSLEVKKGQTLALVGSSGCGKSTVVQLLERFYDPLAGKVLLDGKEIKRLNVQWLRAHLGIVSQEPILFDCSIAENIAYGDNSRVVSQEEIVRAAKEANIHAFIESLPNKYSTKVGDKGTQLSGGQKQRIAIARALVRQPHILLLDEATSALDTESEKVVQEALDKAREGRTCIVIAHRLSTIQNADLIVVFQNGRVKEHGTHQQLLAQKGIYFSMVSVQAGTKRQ
protocol_summary: TP_TRANSPORTER: inhibition of Rhodamine 123 efflux in Caco-2 cells
Format: functional, cell-based
Parameters: concentration or dose not given beside the values
measured_property: Activity
Respond with a number, then the unit of measure.

Examples with their reported Activity follow.
compound | Activity
CC(C)(C)NC(=O)[C@@H]1C[C@@H]2CCCC[C@@H]2CN1C[C@@H](O)[C@H](Cc1ccccc1)NC(=O)[C@H](CC(N)=O)NC(=O)c1ccc2ccccc2n1 | 43%
O=c1[nH]c2ccccc2n1C1CCN(CCCC(c2ccc(F)cc2)c2ccc(F)cc2)CC1 [PIMOZIDE] | 37%
CN/C(=N/CCSCc1nc[nH]c1C)NC#N [CIMETIDINE] | 4%
Clc1ccccc1C(c1ccccc1)(c1ccccc1)n1ccnc1 [CLOTRIMAZOLE] | 29%
CC1(C)SSC(C)(C)[C@@H](NC(=O)[C@@H](N)Cc2ccc(O)cc2)C(=O)NCC(=O)N[C@@H](Cc2ccccc2)C(=O)N[C@H]1C(=O)O | 0%

INPUT: For the compound CNC(=C[N+](=O)[O-])NCCSCc1ccc(CN(C)C)o1 [RANITIDINE] , give its measured Activity value.
OUTPUT: 0%

INPUT: Provide one value: measured Activity of COC(=O)C1=C(C)NC(C)=C(C(=O)OCCN(C)Cc2ccccc2)C1c1cccc([N+](=O)[O-])c1 (stereo unspecified) [NICARDIPINE]
OUTPUT: 100%

INPUT: Supply recorded Activity for C[C@@H]1C[C@H]2[C@@H]3CCC4=CC(=O)C=C[C@]4(C)[C@@]3(F)[C@@H](O)C[C@]2(C)[C@@]1(O)C(=O)CO [DEXAMETHASONE] here.
OUTPUT: 0%

INPUT: Please report Activity for the following compound: CCC(C)n1ncn(-c2ccc(N3CCN(c4ccc(OCC5COC(Cn6cncn6)(c6ccc(Cl)cc6Cl)O5)cc4)CC3)cc2)c1=O (stereo unspecified) [ITRACONAZOLE]
OUTPUT: 2%

INPUT: Annotate the compound COc1cc2c(c(OC)c1OC)-c1ccc(OC)c(=O)cc1[C@@H](NC(C)=O)CC2 [COLCHICINE] with its measured Activity.
OUTPUT: 8%

INPUT: Return the recorded Activity value; entry: Clc1ccc(COC(Cn2ccnc2)c2ccc(Cl)cc2Cl)c(Cl)c1 (stereo unspecified) [MICONAZOLE]
OUTPUT: 22%
